- assayed_target: MDMX (Homo sapiens)
- Sequence (O15151 1-125): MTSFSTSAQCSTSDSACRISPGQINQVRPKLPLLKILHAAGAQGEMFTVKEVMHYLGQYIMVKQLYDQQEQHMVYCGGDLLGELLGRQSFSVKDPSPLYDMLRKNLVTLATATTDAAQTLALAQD
- measurement_description: Competitive fluorescence polarization assay for MDMX
- Format: binding
- assay_setup: competitive FP assay, read-out: Ki (MDMX)
Where a SMILES comes first, the peptide text is derived from it. Bridges are numbered along the chain shown (N, C = ends). [ ]: non-standard residue; d: D form. R8 = C=CCCCCCC[C@@](C)(N)C(=O)O; S5 = C=CCCC[C@](C)(N)C(=O)O
experimental_endpoint: Ki

Look over these answered cases.
CC(=O)N[C@@H](CC(C)C)C(=O)N[C@H](C(=O)N[C@@H](Cc1ccccc1)C(=O)N[C@]1(C)CCCCCCC=CCCC[C@@](C)(C(=O)N[C@@H](C)C(=O)N[C@@H](C)C(=O)N[C@@H](C)C(=O)N[C@@H](C)C(=O)N[C@@H](C)C(=O)N[C@H](C)C(N)=O)NC(=O)[C@H](CC(C)C)NC(=O)[C@H](CO)NC(=O)[C@H](C)NC(=O)[C@H](Cc2c[nH]c3ccccc23)NC(=O)[C@H](Cc2ccc(O)cc2)NC(=O)[C@H](CCC(=O)O)NC1=O)[C@@H](C)O [compound 610] (Ac-LTF[R8]EYWASL[S5]AAAAA[dA]-NH2; staple 4-11)
10 to 100 nM
CC(=O)N[C@@H](CC(C)C)C(=O)N[C@H](C(=O)N[C@@H](Cc1ccccc1)C(=O)N[C@]1(C)CCCCCCC=CCCC[C@@](C)(C(=O)N[C@@H](CO)C(=O)N[C@@H](C)C(=O)N[C@@H](C)C(N)=O)NC(=O)[C@H](CC(C)C)NC(=O)[C@H](CCC(N)=O)NC(=O)[C@H](C)NC(=O)[C@H](Cc2c[nH]c3ccccc23)NC(=O)[C@H](CO)NC(=O)[C@H](C)NC1=O)[C@@H](C)O (single isomer, unassigned) [compound 167]
100 to 1000 nM
CC[C@H](C)[C@H](NC(C)=O)C(=O)N[C@H](C(=O)N[C@@H](Cc1ccccc1)C(=O)N[C@]1(C)CCCCCCC=CCCC[C@@](C)(C(=O)N[C@@H](C)C(=O)N[C@@H](Cc2c[nH]cn2)C(=O)N[C@@H](Cc2ccccc2)C(=O)N[C@@H](C)C(N)=O)NC(=O)[C@H](CC(C)C)NC(=O)[C@H](CCC(N)=O)NC(=O)[C@H](C)NC(=O)[C@H](Cc2c[nH]c3ccccc23)NC(=O)[C@H](Cc2c[nH]cn2)NC(=O)[C@H](CCC(=O)O)NC1=O)[C@@H](C)O (single isomer, unassigned) [compound 189]
10 to 100 nM
CCCC[C@H](NC(=O)[C@H](C)NC(=O)[C@H](C)NC(=O)[C@]1(C)CCCC=CCCCCCC[C@@](C)(NC(=O)[C@H](Cc2ccccc2)NC(=O)[C@@H](NC(=O)[C@H](CC(C)C)NC(C)=O)[C@@H](C)O)C(=O)N[C@@H](C)C(=O)N[C@@H](Cc2ccc(O)cc2)C(=O)N[C@@H](Cc2c[nH]c3ccccc23)C(=O)N[C@@H](C)C(=O)N[C@@H](CCC(N)=O)C(=O)N[C@@H](CC(C)C)C(=O)N1)C(=O)N[C@H](C)C(N)=O (single isomer, unassigned) [compound 75]
10 to 100 nM

Now for another entry.
Query string: Quick one: Ki for CC[C@H](C)[C@H](NC(=O)[C@H](C)NC(=O)[C@H](C)NC(=O)[C@]1(C)CCCC=CCCCCCC[C@@](C)(NC(=O)[C@H](Cc2ccccc2)NC(=O)[C@@H](NC(=O)[C@H](CC(C)C)NC(=O)CN(C)C)[C@@H](C)O)C(=O)N[C@@H](CCC(=O)O)C(=O)N[C@@H](Cc2ccc(C(=O)O)cc2)C(=O)N[C@@H](Cc2c[nH]c3ccccc23)C(=O)N[C@@H](C)C(=O)N[C@@H](CCC(N)=O)C(=O)N[C@@H](CC2CCC2)C(=O)N1)C(=O)N[C@H](C)C(N)=O (single isomer, unassigned) [compound 441] ?
Result string: < 10 nM
